B1: Azoarcus group I ribozyme (parent)
chain: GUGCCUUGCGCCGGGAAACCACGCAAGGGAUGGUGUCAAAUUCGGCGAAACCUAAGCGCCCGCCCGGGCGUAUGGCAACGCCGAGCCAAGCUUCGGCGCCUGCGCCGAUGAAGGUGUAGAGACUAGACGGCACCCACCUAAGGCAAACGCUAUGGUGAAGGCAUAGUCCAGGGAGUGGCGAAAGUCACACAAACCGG

Variants of: B1
assay_protocol: reverse-splicing fitness (ratio to wild type); higher = more active; in vitro selection; Mg2+ level not given
value_type: reverse-splicing fitness

>>> value_observed("A145G C169G U176A")
0.0818
>>> value_observed("C82U A111U A120U A145C C169A U176G")
0.00173
>>> value_observed("C82G A120U A145C C169U U176G")
0.00148
>>> value_observed("C82G A111G A120G C150G C169U")
0.0094
>>> value_observed("C82U A111C A120C A145C C150A")
0.0072
>>> value_observed("C82G A111U C150G C169G U176A")
0.0074
>>> value_observed("C82U A111U A120G C150A C169G U176G")
0.00529
>>> value_observed("A111C A120C A145C C150G U176A")
0.0198
>>> value_observed("C82A A111U A145G C150G C169G U176G")
0.00649
>>> value_observed("A111U A120C A145U C150U C169U U176A")
0.0306
>>> value_observed("C82U A111G A120C A145C C150A U176G")
0.0038
>>> value_observed("C82U A120C A145C C169U")
0.0225
>>> value_observed("C82U A111U A120C U176A")
0.0144
>>> value_observed("C82G A111U A120C A145G C169A U176A")
0.0222
>>> value_observed("C82G A111G A145G C150U C169A U176A")
0.0171
>>> value_observed("A120C C150U C169U")
0.345
>>> value_observed("C82G A111C A120C A145G C150A U176C")
0.0234
>>> value_observed("A111U A120U A145U C150A C169U U176C")
0.00324
>>> value_observed("A120G A145U C150A C169A")
0.0459
>>> value_observed("C82G A111C A120C A145C C150U U176C")
0.0129
>>> value_observed("C82G A145G C150A C169G U176C")
0.0286
>>> value_observed("C82U A111G C150U C169A U176A")
0.0145
>>> value_observed("A111C A145G C150A C169A U176C")
0.0182
>>> value_observed("C82A A111G A120U A145G C150U C169U U176C")
0.00442
>>> value_observed("A111G A120C A145U C150A C169G U176A")
0.0144
>>> value_observed("C82U A111C A120C A145G C150A C169U U176C")
0.0172
>>> value_observed("C82G A111G A145C C150U C169G U176G")
0.00619
>>> value_observed("C82U A120U A145C C150G C169U")
0.00275
>>> value_observed("C82A A111G A120C A145G C150G C169U U176C")
0.0117
>>> value_observed("C82U A111C A145U C150U C169G U176A")
0.0121
>>> value_observed("A120G A145U C150G U176G")
0.00612
>>> value_observed("C82G A111C A145C C150A U176C")
0.0188
>>> value_observed("C82G A111G A120G U176C")
0.0217
>>> value_observed("A145U C150A C169A")
0.0212
>>> value_observed("C82G A111G A120U A145U C150U C169A U176C")
0.00239
>>> value_observed("C82G A120U A145C C150U C169U U176G")
0.00165
>>> value_observed("C82A A111C A120U A145G C150U C169A U176G")
0.00324
>>> value_observed("A145U C150U C169U U176A")
0.0998
>>> value_observed("C82U A111G C169G")
0.0092
>>> value_observed("C82U C150G C169A U176C")
0.01
>>> value_observed("C82G A111C A120G A145G C150G C169U U176G")
0.00731
>>> value_observed("A111G A120U A145U C150U C169A U176A")
0.00375
>>> value_observed("A111G A120U A145C")
0.701
>>> value_observed("A145C C169A U176A")
0.029
>>> value_observed("C82A A111U A120U A145G C169U U176C")
0.00428
>>> value_observed("A111G A145U C169U U176C")
0.0656
